targetUnderTest: T1, His-tagged human MET antigen (human, UniProt P08581 25-932)
T1 construct: Soluble antigen used as analyte in SPR; not shown: His tag
T1 sequence (P08581 25-932 limits assumed): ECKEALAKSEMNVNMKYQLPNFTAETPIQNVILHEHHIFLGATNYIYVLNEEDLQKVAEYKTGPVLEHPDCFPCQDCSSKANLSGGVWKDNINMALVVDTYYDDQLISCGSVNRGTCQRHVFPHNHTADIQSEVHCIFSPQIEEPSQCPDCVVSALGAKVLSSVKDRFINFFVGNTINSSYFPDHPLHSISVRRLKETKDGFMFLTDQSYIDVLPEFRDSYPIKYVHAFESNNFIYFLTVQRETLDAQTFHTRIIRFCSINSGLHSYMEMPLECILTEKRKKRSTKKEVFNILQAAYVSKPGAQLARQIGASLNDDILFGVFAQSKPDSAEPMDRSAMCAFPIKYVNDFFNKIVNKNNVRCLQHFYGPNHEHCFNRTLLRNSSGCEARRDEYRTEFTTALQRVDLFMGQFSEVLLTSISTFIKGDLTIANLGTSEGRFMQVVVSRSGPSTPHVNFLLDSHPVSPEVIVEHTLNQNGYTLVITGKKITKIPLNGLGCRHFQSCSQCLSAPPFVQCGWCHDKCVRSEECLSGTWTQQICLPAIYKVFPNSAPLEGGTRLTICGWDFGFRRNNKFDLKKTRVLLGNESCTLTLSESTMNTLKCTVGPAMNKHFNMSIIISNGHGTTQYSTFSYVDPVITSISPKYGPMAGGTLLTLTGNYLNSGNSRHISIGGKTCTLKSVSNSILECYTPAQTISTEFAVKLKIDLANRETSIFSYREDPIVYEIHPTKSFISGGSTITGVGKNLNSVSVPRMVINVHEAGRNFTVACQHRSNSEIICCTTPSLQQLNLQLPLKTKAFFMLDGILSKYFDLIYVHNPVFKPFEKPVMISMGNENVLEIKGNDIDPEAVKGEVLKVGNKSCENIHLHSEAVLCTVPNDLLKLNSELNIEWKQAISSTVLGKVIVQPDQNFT
protocolText: SPR, Biacore 8K; antibody captured, His-tagged human MET antigen 6.25-400 nM as analyte; 1:1 Langmuir
reportedEndpoint: kon (M⁻¹ s⁻¹)
# value in M⁻¹ s⁻¹; strip the unit string

Can you look up the measured kon of Antibody A13 T31V (antibody, human IgG1, kappa, V domains shown, Differs from antibody A13 only by T to V at position 31 of VL) VH: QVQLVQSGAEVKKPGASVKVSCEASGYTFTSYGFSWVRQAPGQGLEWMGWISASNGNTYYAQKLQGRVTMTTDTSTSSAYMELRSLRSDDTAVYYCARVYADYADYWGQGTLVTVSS VL: DIQMTQSPSSVSASVGDRVTITCRASQGINVWLAWYQQKPGKAPKLLIYAASSLKSGVPSRFSGSGSGADFTLTISSLQPEDFATYYCQQANSFPLTFGGGTKVEIKR for me?
56000

Hello, the source for this data is patent EP4778941A1, in case you need it.
